- ASSAY PROTOCOL: Partition coefficient (logD) (octanol/phosphate buffer)
- Format: physicochemical
Provide the recorded logD for the entries that follow.
Note: the reply should be a number with no unit written.

response.value for CCCC(=O)OCC1CCN(CCF)CC1 (field: logD) = -1.3

Lab note: measured logD of CCC(=O)OC1CCN(C)CC1 was -2.2

Sure, the documented logD for CCCC(=O)OC1CCN(C)CC1 is -2.2

Please fill in: logD reported for CC(=O)OC1CCN(C)CC1 = -2.2
